Numbers sourced from PubChem BioAssay (NCI).

assay: NCI Yeast Anticancer Drug Screen. Data for the rad50 strain (AID 155);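 further: 0% = growth of vehicle-only cultures of the same strain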; settings: S. cerevisiae rad50 strain growth inhibition; at 50.0 µM; stronger effect = higher value
Compounds without any hit were thinned out: in the full panel of roughly 79,000, 15% have a hit.
Each entry below carries its reported growth inhibition.
Please respond with the number in % and leave the unit unwritten.

Before answering, review these 3 worked examples.
compound="CC(=O)OC1C(C)OC(OC(=O)C2CCC3C(C2)OC2(CC(OC(=O)/C=C/c4ccccc4)C(C)CO2)C32CO2)C(OC2OC(C)C(O)C(OC(C)=O)C2O)C1O (centres undefined)" unit_of_measure=% test_result=87.9
compound="CCCCCCCNc1ccc2c(cc1=O)C(NC(C)=O)CCc1cc(OC)c(OC)c(OC)c1-2 (centres undefined)" unit_of_measure=% test_result=91.5
compound=CSc1ccc(/C=N/NC(N)=S)cc1 unit_of_measure=% test_result=91

Now look at this one.
Value of growth inhibition reported for the compound Clc1ccc(-c2cc(-c3cc(-c4ccc(Cl)c(Cl)c4)n[nH]3)[nH]n2)cc1Cl is 91

---

experiment: NCI Yeast Anticancer Drug Screen. Data for the mec2-1 strain (AID 157); conditions: S. cerevisiae mec2-1 strain, at 50.0 µM, stronger effect = higher value
The panel holds about 79,000 compounds, 15% with a hit somewhere; the sample as a whole holds those more often.
Each entry below carries its reported growth inhibition.
Please respond with the number in % and leave the unit unwritten.

Before answering, review these 5 worked examples.
molecule="COC/C(Br)=C\\SC#N (tested in a mixture with another compound)" measured_property="growth inhibition" test_result=98.7
molecule="Cc1cccc(C)c1N1C(=O)C(=O)C(c2nc3ccccc3s2)/C(=N/NC(=O)c2ccccc2O)C1=O (stereo not drawn)" measured_property="growth inhibition" test_result=56.2
molecule=CCCCCCCCCCCCCCCCCCn1[se]c2ccccc2c1=O measured_property="growth inhibition" test_result=45.4
molecule=O=C(O)CCCCC1CCCCC1.[Cu+2] measured_property="growth inhibition" test_result=-3.1
molecule="OCC(O)C(OC1OC(CO)C(O)C(O)C1O)C(O)C(/C=N/Nc1ccc(Br)cc1)=N/Nc1ccc(Br)cc1 (stereo not drawn)" measured_property="growth inhibition" test_result=98.5

Value of growth inhibition reported for the molecule CC(=O)OC1CCC2(C)C3CCC4(C)C(C(C)CCCC(C)C)CCC4C3CCC23OC13C (stereo not drawn) is 6.2

Value of growth inhibition reported for the molecule N#CCC1CC(=O)c2[nH]c3ccccc3c2C1 (stereo not drawn) is 7.7

Value of growth inhibition reported for the molecule CN(C)c1ccc2c(c1)Cc1cc(NC(=O)/C=C/C(=O)O)ccc1-2 is -2.05

Value of growth inhibition reported for the molecule O=C1C2(Cl)C(Cl)=C(Cl)C1(Cl)C1(Cl)C(Cl)=C(Cl)C(=O)C21Cl (stereo not drawn) is 54.2

Value of growth inhibition reported for the molecule O=C(Nc1ccc(S(=O)(=O)NC2CCCCC2)cc1)OCc1ccccc1 is 9.85

---

experiment: NCI Yeast Anticancer Drug Screen. Data for the rad50 strain (AID 155);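 further: 0% = growth of vehicle-only cultures of the same strain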; settings: S. cerevisiae rad50 strain growth inhibition; at 50.0 µM (retest, dose inferred, filed as 5.0); stronger effect = higher value
Compounds without any hit were thinned out: in the full panel of roughly 79,000, 15% have a hit.
Each entry below carries its reported growth inhibition.
Please respond with the number in % and leave the unit unwritten.

Before answering, review these 5 worked examples.
compound="CC1(COc2ccccc2OCC2(C)CO2)CO1 (stereo unspecified)" measured_property="growth inhibition" test_result=4
compound="Cc1ccc(C)c(N2C(=O)C(=O)C(c3nc4ccccc4o3)/C(=N\\NC(=O)c3ccccc3O)C2=O)c1 (stereo unspecified)" measured_property="growth inhibition" test_result=21
compound="CCCN(CCC)CC(O)c1cc(-c2ccccc2)nc2c(Cl)cc(Cl)cc12 (stereo unspecified)" measured_property="growth inhibition" test_result=90
compound=CCCCCCCCCCCCCC(=O)OCC[N+](C)(C)C measured_property="growth inhibition" test_result=98
compound=CCC[CH2][Sn]([CH2]CCC)([O]C(=O)c1cccc(F)c1)[O]C(=O)c1cccc(F)c1 measured_property="growth inhibition" test_result=26

Value of growth inhibition reported for the compound FC(F)(F)c1nc(S)cc(=S)[nH]1 is 13

---

Each entry below carries its reported growth inhibition.
test: NCI Yeast Anticancer Drug Screen. Data for the bub3 strain (AID 167); details: S. cerevisiae bub3 mutant strain, at 5.0 µM (retest, dose inferred, filed as 0.5), stronger effect = higher value
Compounds without any hit were thinned out: in the full panel of roughly 79,000, 15% have a hit.
Please respond with the number in % and leave the unit unwritten.

Before answering, review these 2 worked examples.
compound=O=C1SCCN1/N=C/c1ccc([N+](=O)[O-])o1 unit_of_measure=% test_result=10
compound="N#CC(C#N)=C1CCC(CC2CCCCC2)CC1 (centres undefined)" unit_of_measure=% test_result=-58

Value of growth inhibition reported for the compound COc1ccc2nc3cc(Cl)ccc3c(NCCNCCCNC(=O)c3cc(-c4ccccc4)nc4ccccc34)c2c1 is -15

Value of growth inhibition reported for the compound Clc1ccc2nc3c(c(N4CCOCC4)c2c1)CCCC3 is 53

---

assay: NCI Yeast Anticancer Drug Screen. Data for the rad50 strain (AID 155);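 further: 0% = growth of vehicle-only cultures of the same strain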; conditions: S. cerevisiae rad50 strain growth inhibition; at 5.0 µM (retest, dose inferred, filed as 0.5); stronger effect = higher value
Compounds without any hit were thinned out: in the full panel of roughly 79,000, 15% have a hit.
Measured Property: growth inhibition (%)
Please respond with the number in % and leave the unit unwritten.

Before answering, review these 3 worked examples.
compound=O=[N+]([O-])c1ccc(C2=CSc3ccccc3N2)cc1 unit_of_measure=% test_result=-17
compound=O=C(O)/C(Cl)=C(\Cl)C(=O)Nc1cccc(C(F)(F)F)c1 unit_of_measure=% test_result=65
compound=CCNC(=S)NNC(=S)NNc1ccccc1 unit_of_measure=% test_result=52

Now look at this one.
Value of growth inhibition reported for the compound C[N+](C)(C)CCC(=O)c1ccco1 is 7

---

assay: NCI Yeast Anticancer Drug Screen. Data for the cln2 rad14 strain (AID 165);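 further: 0% = growth equal to vehicle treated cultures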; conditions: S. cerevisiae cln2 rad14 strain, at 50.0 µM, stronger effect = higher value
The panel holds about 79,000 compounds, 15% with a hit somewhere; the sample as a whole holds those more often.
Each entry below carries its reported growth inhibition.
Please respond with the number in % and leave the unit unwritten.

Value of growth inhibition reported for the compound Cc1cccc(C[P+](c2ccccc2)(c2ccccc2)c2ccccc2)c1 is 91.9

Value of growth inhibition reported for the compound CCCCCCCC1SCC(=O)N1c1nncs1 (stereo unspecified) is 3.1

Value of growth inhibition reported for the compound CC(=O)O/C=C\COC(C)=O is 33.5

---

assay: NCI Yeast Anticancer Drug Screen. Data for the sgs1 mgt1 strain (AID 161);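 further: 0% = growth of cultures given vehicle only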; conditions: S. cerevisiae sgs1 mgt1 strain, at 5.0 µM (retest, dose inferred, filed as 0.5), stronger effect = higher value
This is part of a sample that, as a whole, favours compounds with a hit. Of some 79,000 tested, about 15% had one in any assay.
Measured Property: growth inhibition (%)
Please respond with the number in % and leave the unit unwritten.

compound="CCCCCCCCCCCCCCCCC1CCc2ccccc21 (stereo not given)" test_result=11

Value of growth inhibition reported for the compound O/N=C/c1cc(Cl)cc(Cl)c1O is 53

---

Each entry below carries its reported growth inhibition.
Assay: NCI Yeast Anticancer Drug Screen. Data for the bub3 strain (AID 167)
Details: S. cerevisiae bub3 mutant strain, at 5.0 µM (retest, dose inferred, filed as 0.5), stronger effect = higher value
Description: Growth inhibition of yeast strains with defined genetic alterations is measured as a screen for potential anti-cancer activity. Selected strains with alterations in DNA damage repair or cell cycle control were exposed to compounds and growth inhibition was measured relative to vehicle treated controls. The strain used in this assay is bub3
About 79,000 compounds went through this panel and 15% of them were active in at least one assay; those are over-represented in the sample as a whole.
Please respond with the number in % and leave the unit unwritten.

compound="O=[N+]([O-])C1C(c2ccccc2)CC=CC1N1CCCC1 (stereo unspecified)" unit_of_measure=% test_result=-3
compound="N=C(N)SC1c2ccccc2-c2cc([N+](=O)[O-])ccc21 (stereo unspecified)" unit_of_measure=% test_result=11
compound=C/C(=C\c1ccccc1)c1ccncc1 unit_of_measure=% test_result=-9

Value of growth inhibition reported for the compound N#CSCc1c(Cl)cccc1Cl is 64

Value of growth inhibition reported for the compound Cc1c(NC(=O)C(=O)N=NC(=O)c2ccncc2)c(O)c2ccccc2c1O is 1

Value of growth inhibition reported for the compound CC(=O)OCC1OC(OC(C)=O)C(On2nnc3c(-c4ccccc4)c(C)nn32)C(OC(C)=O)C1OC(C)=O (stereo unspecified) is -1

Value of growth inhibition reported for the compound CCOc1cc(/C=N/NC(=S)NC23CC4CC(CC(C4)C2)C3)ccc1O is -7

Value of growth inhibition reported for the compound COc1ccc(C(SCC(N)C(=O)O)(c2ccc(OC)cc2)c2ccc(OC)cc2)cc1 (stereo unspecified) is 15

Value of growth inhibition reported for the compound O=S(=O)(Nc1ccc2ccccc2c1)c1ccccc1 is -9

Value of growth inhibition reported for the compound C(C#Cc1ccccc1)#CCc1ccccc1 is 1

Value of growth inhibition reported for the compound CC(=O)OC1CCC23COC(CC(C)C2C)C3(Br)C1 (stereo unspecified) is 6
